Taken from the Human Domainome abundance scans (Beltran et al. 2025).

B1: Intersectin-1, residues 909 to 971; numbered along this chain, Q15811 (parent)
chain: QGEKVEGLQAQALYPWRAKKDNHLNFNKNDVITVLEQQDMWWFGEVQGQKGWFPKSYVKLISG

# Variants of: B1
# method summary: abundance fitness (aPCA) (normalised: wild type 0, dead -1); higher = more abundant; growth selection in yeast, the domain comes from the species named
# condition label: Homo sapiens
For each of the variants below, state its abundance fitness.

Q: Reported abundance fitness, variant `V58P` : ____
A: -0.379

Q: Continue with `S62H`
A: -0.362

Q: What about this variant? `G44V`
A: -1.1

Q: Ok, now `E3F`
A: -0.169

Q: Request: `G63L`
A: -0.077

Q: Next variant up: `G2D`
A: -0.265

Q: Also `V34M` ?
A: -0.772

Q: Now this one: `E45R`
A: -0.034

Q: Field entry: `V46Y`
A: -0.287

Q: Follow-up entry: `L24Q`
A: -0.694

Q: Note, next up: `K19L`
A: -0.045

Q: And `D39W` ?
A: -0.588

Q: Next variant up: `Q47W`
A: -0.125

Q: Now give it for `K20N` too.
A: 0.053

Q: And for `K59Q` ?
A: -0.109

Q: # iterate: `I61H`
A: -0.438

Q: Proceed to `Q11D`
A: -0.728

Q: Also check `N29P`
A: -0.728

Q: Request: `W41G`
A: -0.78

Q: Same for `Y14V`
A: 0.011

Q: // repeat for `L35T` and report
A: -0.327

Q: Try this variant next: `I61W`
A: -0.274
